Target: UniProt P30542
Sequence (P30542 whole entry): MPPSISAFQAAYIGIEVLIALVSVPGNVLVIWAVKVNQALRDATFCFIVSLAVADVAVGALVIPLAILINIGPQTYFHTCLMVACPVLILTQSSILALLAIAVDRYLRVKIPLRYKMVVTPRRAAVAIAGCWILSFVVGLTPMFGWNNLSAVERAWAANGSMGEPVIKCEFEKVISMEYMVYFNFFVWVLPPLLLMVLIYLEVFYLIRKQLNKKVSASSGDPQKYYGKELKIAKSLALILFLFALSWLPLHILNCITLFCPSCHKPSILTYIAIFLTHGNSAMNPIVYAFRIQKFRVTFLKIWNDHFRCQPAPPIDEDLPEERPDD
Parameter pKi: see the listing below.
Scale explanation: pKi corresponds to minus log10 of a concentration expressed in moles per litre.

The examples below pair each entry with its known result.
mol-smiles	pKi
CCn1nnc(-c2sc(NC(=O)Cc3ccccc3)nc2-c2ccccc2)n1	5.92
CC(C)CC(=O)Nc1nc(-c2ccccc2)c(-c2ncon2)s1	7.11
Cc1nc(-c2sc(NC(=O)Cc3ccccc3)nc2-c2ccccc2)no1	6.59
Cc1noc(-c2sc(NC(=O)c3ccco3)nc2-c2ccccc2)n1	6.57
Cc1noc(-c2sc(NC(=O)c3ccccc3)nc2-c2ccccc2)n1	6.74

IN: # query: pKi of entry Cc1nc(-c2sc(NC(=O)C3CC3)nc2-c2ccccc2)no1
OUT: 6.82
